Experiment: Pharmacokinetics after IV or oral administration in rat
Format: in vivo, SD rat
Conditions: male, Sprague-Dawley, rat, plasma, iv, 80 mg/kg, SD rat M, IV bolus, Lyophilized HP-β-CD/saline
reported_property: Cmax (µg/mL)
Answers are plain numbers, in µg/mL.

Request: Param item = CN(NC(=O)CC(=O)NN(C)C(=S)c1ccccc1)C(=S)c1ccccc1 [Compound 1] ; retrieve measured Cmax.
Result: 63.8

====

Experiment: Pharmacokinetics after IV or oral administration in rat
Assay type: in vivo, SD rat
Settings: male, Sprague-Dawley, rat, plasma, iv, 25 mg/kg, SD rat M, IV bolus, EES (sol'n)
reported_property: AUC(0-inf)
Please give the number followed by its unit.

Request: Param item = CN(NC(=O)CC(=O)NN(C)C(=S)c1ccccc1)C(=S)c1ccccc1 ; retrieve measured AUC(0-inf).
Result: 9270 ng·h/mL

====

Assign AUC(0-inf) to each entry below.
Experiment: Pharmacokinetics after IV or oral administration in dog
Assay type: in vivo
Conditions: male, beagle, dog, plasma, po, 50 mg/kg, Beagle dog M, capsule (powder), 50 mg/kg as Compound 1 (free acid)
Description: The pharmacokinetics of compounds of the invention were compared in mouse, rat and dog by either intravenous or oral administration in various formulations including drug powder in capsules or in combination with generally recognized as safe (GRAS) excipients. […] Compounds were extracted by protein precipitation and analyzed by LC-UV or LC-MS/MS. […] Oral bioavailability (% F) was calculated based on AUC of Compound 1. […]
Answers are plain numbers, in ng·h/mL.

Record AUC(0-inf) per entry; entries follow.
1. CN(NC(=O)CC(=O)NN(C)C(=S)c1ccccc1)C(=S)c1ccccc1
2. CN(/N=C(\[O-])C/C([O-])=N/N(C)C(=S)c1ccccc1)C(=S)c1ccccc1.[Na+].[Na+]

Result:
[6520, 103000]

====

Assay: Pharmacokinetics after IV or oral administration in dog
Type: in vivo
Conditions: male, beagle, dog, plasma, po, 50 mg/kg, Beagle dog M, capsule (powder), 50 mg/kg as Compound 1 (free acid); reference Compound 1 IV infusion; based on AUC of Compound 1
reported_property: bioavailability

Request: Param item = CN(NC(=O)CC(=O)NN(C)C(=S)c1ccccc1)C(=S)c1ccccc1 ; retrieve measured bioavailability.
Result: < 5%

====

Experiment: Pharmacokinetics after IV or oral administration in rat
Assay type: in vivo, SD rat
Details: male, Sprague-Dawley, rat, plasma, po, 50 mg/kg, SD rat M, Phospholipid
reported_property: half-life (min)
Numbers only, in min.

Request: Param item = CN(NC(=O)CC(=O)NN(C)C(=S)c1ccccc1)C(=S)c1ccccc1 ; retrieve measured half-life.
Result: 54

====

Test: Pharmacokinetics after IV or oral administration in dog
Assay type: in vivo
Settings: male, beagle, dog, plasma, po, 50 mg/kg, Beagle dog M, capsule (powder), 50 mg/kg as Compound 1 (free acid)
Assign Cmax to each entry below.
Answers are plain numbers, in ng/mL.

- CN(/N=C(\[O-])C/C([O-])=N/N(C)C(=S)c1ccccc1)C(=S)c1ccccc1.[Na+].[Na+]: 40400

Request: Param item = CN(NC(=O)CC(=O)NN(C)C(=S)c1ccccc1)C(=S)c1ccccc1 ; retrieve measured Cmax.
Result: 1330

====

Assay: Pharmacokinetics after IV or oral administration in mouse
Type: in vivo
Settings: female, plasma; CD-1 mouse F, PO, TPGS/PEG400 (sol'n), 100 mg/kg
reported_property: Cmax (ng/mL)
Give bare numbers, in ng/mL.

Request: Param item = CN(NC(=O)CC(=O)NN(C)C(=S)c1ccccc1)C(=S)c1ccccc1 ; retrieve measured Cmax.
Result: 12400
